Target: UniProt:P18825
Sequence (P18825 whole entry): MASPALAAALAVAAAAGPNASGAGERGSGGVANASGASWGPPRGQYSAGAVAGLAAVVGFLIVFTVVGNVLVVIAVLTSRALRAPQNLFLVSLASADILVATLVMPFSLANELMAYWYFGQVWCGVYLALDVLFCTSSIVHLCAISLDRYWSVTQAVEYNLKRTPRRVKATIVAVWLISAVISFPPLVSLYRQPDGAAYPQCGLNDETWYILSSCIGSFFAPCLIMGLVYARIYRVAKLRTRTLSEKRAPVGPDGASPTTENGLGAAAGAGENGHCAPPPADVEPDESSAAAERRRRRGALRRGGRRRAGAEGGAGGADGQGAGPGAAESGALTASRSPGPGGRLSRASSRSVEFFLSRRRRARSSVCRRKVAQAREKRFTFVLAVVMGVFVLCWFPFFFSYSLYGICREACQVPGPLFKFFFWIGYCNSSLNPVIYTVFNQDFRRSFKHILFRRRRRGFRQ
quantityMeasured: Ki
Remember to put the unit after the number in your answer.

Ki measured on COc1cc2c(cc1OC)C1=NOC(CN3CCN(C/C=C(\C)c4ccccc4)CC3)C1CO2 (centres undefined) = 0.6 nM

Ki measured on COc1cc2c(cc1OC)C1=NOC(CN3CCN(Cc4cccc5ccccc45)CC3)C1CO2 (centres undefined) = 89 nM

Ki measured on COc1cc2c(cc1OC)C1=NOC(CN3CCN(Cc4csc5ccccc45)CC3)C1CO2 (centres undefined) = 13 nM

Ki measured on COc1cc2c(cc1OC)C1=NOC(CN3CCN(CC4=Cc5ccccc5C4)CC3)C1CO2 (centres undefined) = 4.7 nM

Ki measured on COc1cc2c(cc1OC)C1=NO[C@@H](CN3CCN(C/C(C)=C/c4ccccc4)CC3)[C@@H]1CO2 (stereo in doubt; (-)15f) = 1.4 nM

Ki measured on COc1cc2c(cc1OC)C1=NOC(CN3CCN(Cc4cnc5ccccc5c4)CC3)C1CO2 (centres undefined) = 30 nM

Ki measured on COc1cc2c(cc1OC)C1=NOC(CN3CCN(Cc4cc5ccccc5s4)CC3)C1CO2 (centres undefined) = 89 nM

Ki measured on COc1cc2c(cc1OC)C1=NO[C@@H](CN3CCN(Cc4ccc5ccccc5c4)CC3)[C@@H]1CO2 (stereo in doubt; (-)15h) = 9.5 nM

Ki measured on COc1cc2c(cc1OC)C1=NOC(CN3CCN(CCC(=O)c4ccccc4)CC3)C1CO2 (centres undefined) = 5.3 nM
